TARGET DESC: Dual specificity mitogen-activated protein kinase kinase 1 (Homo sapiens)
Sequence (Q02750 whole entry): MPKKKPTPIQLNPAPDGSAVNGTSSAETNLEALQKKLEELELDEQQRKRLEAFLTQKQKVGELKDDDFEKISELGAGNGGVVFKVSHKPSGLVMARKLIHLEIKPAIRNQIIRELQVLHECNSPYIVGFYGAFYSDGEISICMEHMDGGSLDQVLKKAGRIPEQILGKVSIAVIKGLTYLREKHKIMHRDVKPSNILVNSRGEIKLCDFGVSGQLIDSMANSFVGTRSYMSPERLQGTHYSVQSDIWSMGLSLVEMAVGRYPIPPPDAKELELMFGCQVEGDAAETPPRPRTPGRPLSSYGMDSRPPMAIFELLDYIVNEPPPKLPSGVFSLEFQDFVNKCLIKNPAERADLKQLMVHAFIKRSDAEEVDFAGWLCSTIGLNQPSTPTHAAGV
TEST SUMMARY: Inhibition of recombinant MEK1 expressed in Escherichia coli
RECORDED ENDPOINT: IC50

[[record]]
structure_notation = "O=C1NC(=O)C(n2ccc3ncccc32)=C1c1cn(CCn2ccnc2)c2ccccc12"
recorded_endpoint = "IC50"
readout_value = "> 40 µM"

[[record]]
structure_notation = "O=C1NC(=O)C(n2ccc3ncccc32)=C1c1cn(CCCn2ccnc2)c2ccc(Br)cc12"
recorded_endpoint = "IC50"
readout_value = "> 40 µM"

[[record]]
structure_notation = "Cn1cc(C2=C(c3cn(CCCN4CCOCC4)c4ccccc34)C(=O)NC2=O)c2ncccc21"
recorded_endpoint = "IC50"
readout_value = "> 40 µM"

